experimental.system: T1, His-tagged, full-length PCSK9 (human, UniProt Q8NBP7 31-692)
T1 construct: The secreted protein is autocleaved into a prodomain and a catalytic/Cys-rich chain that starts at S153; also called His-PCSK9
T1 sequence (Q8NBP7 other isoform, or with tags, fused parts or gaps limits assumed): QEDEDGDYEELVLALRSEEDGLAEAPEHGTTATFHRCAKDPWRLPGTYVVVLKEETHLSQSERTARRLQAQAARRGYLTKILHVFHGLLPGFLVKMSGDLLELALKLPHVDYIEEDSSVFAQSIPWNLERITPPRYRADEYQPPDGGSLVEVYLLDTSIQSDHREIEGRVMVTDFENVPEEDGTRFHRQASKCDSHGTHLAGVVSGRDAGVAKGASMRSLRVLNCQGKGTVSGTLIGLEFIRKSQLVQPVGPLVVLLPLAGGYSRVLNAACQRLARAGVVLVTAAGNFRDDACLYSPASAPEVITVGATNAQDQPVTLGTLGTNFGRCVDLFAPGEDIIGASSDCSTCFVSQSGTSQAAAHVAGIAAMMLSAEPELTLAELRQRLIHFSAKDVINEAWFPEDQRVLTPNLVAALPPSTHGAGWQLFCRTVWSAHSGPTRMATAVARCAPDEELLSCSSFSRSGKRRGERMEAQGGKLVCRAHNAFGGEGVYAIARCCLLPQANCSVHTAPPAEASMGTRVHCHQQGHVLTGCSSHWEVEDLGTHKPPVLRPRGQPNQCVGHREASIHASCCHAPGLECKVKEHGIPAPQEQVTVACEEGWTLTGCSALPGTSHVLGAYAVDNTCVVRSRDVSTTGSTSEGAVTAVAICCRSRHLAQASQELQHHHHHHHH
procedure.details: TR-FRET competition; His-PCSK9, competitor EGF(A)-Fc
pIC50: −log10 of the molar value. Square brackets hold non-standard residues; d marks the D form. Ends that are not written are not given here. * marks the point of attachment. hArg = N=C(N)NCCCC[C@H](N)C(=O)O; Pentanoyl = CCCCC(=O)*
Classify by measured pIC50: condition met if it is equal to or exceeds 5, condition not met if it is smaller.

Field: example entries. Status: answers known.
WNLVRIGLLR (also: further groups not given here, Structure printed only as a drawing) [Compound 131]    condition not met
WNLVRIGLTR (also: further groups not given here, Structure printed only as a drawing) [Compound 190]    condition not met
Pentanoyl-WNLVRIGLER-NH2 (SMILES CCCCC(=O)N[C@@H](Cc1c[nH]c2ccccc12)C(=O)N[C@@H](CC(N)=O)C(=O)N[C@@H](CC(C)C)C(=O)N[C@H](C(=O)N[C@@H](CCCNC(=N)N)C(=O)N[C@H](C(=O)NCC(=O)N[C@@H](CC(C)C)C(=O)N[C@@H](CCC(=O)O)C(=O)N[C@@H](CCCNC(=N)N)C(N)=O)[C@@H](C)CC)C(C)C) [Compound 177]    condition not met

[in] Would you say WNLV[hArg]IGLLR (also: further groups not given here, Structure printed only as a drawing) [Compound 212] shows pIC50 at minimum 5?
[out] condition not met

[in] Would you say WNLVRIGLLR (also: further groups not given here, Structure printed only as a drawing) [Compound 151] shows pIC50 at minimum 5?
[out] condition met

[in] Would you say WNLV[hArg]IGLLR (also: further groups not given here, Structure printed only as a drawing) [Compound 222] shows pIC50 at minimum 5?
[out] condition not met

[in] Would you say WNLV[hArg]IGLLR (also: end groups and other groups only in drawing, Structure printed only as a drawing) [Compound 193] shows pIC50 at minimum 5?
[out] condition not met

[in] Would you say Ac-MESFPGWNLK[hArg]IGLLR-NH2 (SMILES CC[C@H](C)[C@H](NC(=O)[C@H](CCCCNC(=N)N)NC(=O)[C@H](CCCCN)NC(=O)[C@H](CC(C)C)NC(=O)[C@H](CC(N)=O)NC(=O)[C@H](Cc1c[nH]c2ccccc12)NC(=O)CNC(=O)[C@@H]1CCCN1C(=O)[C@H](Cc1ccccc1)NC(=O)[C@H](CO)NC(=O)[C@H](CCC(=O)O)NC(=O)[C@H](CCSC)NC(C)=O)C(=O)NCC(=O)N[C@@H](CC(C)C)C(=O)N[C@@H](CC(C)C)C(=O)N[C@@H](CCCNC(=N)N)C(N)=O) [Compound 233] shows pIC50 at minimum 5?
[out] condition met
